- studySystem: TpCorC CBS domain (Thermus parvatiensis)
- experimentalContext: 100 mM KCl, 5 mM MgCl2, 20 mM Hepes pH 7.5, 25 °C; CBS domain nucleotide site
measuredAttribute: pKd
On this scale, pKd is minus log10 of a concentration expressed in M (mol/L).

Query string: Suppose we examine the molecule Nc1ncnc2c1ncn2[C@@H]1O[C@H](COP(=O)(O)OP(=O)(O)OP(=O)(O)O)[C@@H](O)[C@H]1O ; what pKd value has been reported?
Result string: 6.34

====

- studySystem: TpCorC CBS domain (Thermus parvatiensis, UniProt A0A109QFA5, Y255A)
- Sequence (A0A109QFA5 202-361 Y255A limits assumed): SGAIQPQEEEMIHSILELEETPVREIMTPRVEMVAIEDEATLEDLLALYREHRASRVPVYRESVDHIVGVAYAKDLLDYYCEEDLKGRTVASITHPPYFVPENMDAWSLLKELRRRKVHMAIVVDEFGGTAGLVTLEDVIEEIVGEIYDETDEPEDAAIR
- experimentalContext: 100 mM KCl, 5 mM MgCl2, 20 mM Hepes pH 7.5, 25 °C; CBS domain nucleotide site
measuredAttribute: pKd
On this scale, pKd is minus log10 of a concentration expressed in M (mol/L).

Query string: Suppose we examine the compound Nc1ncnc2c1ncn2[C@@H]1O[C@H](COP(=O)(O)OP(=O)(O)OP(=O)(O)O)[C@@H](O)[C@H]1O [ATP] ; what pKd value has been reported?
Result string: 5.55

====

- studySystem: TpCorC CBS domain (Thermus parvatiensis, UniProt A0A109QFA5, T336I)
- Sequence (A0A109QFA5 202-361 T336I limits assumed): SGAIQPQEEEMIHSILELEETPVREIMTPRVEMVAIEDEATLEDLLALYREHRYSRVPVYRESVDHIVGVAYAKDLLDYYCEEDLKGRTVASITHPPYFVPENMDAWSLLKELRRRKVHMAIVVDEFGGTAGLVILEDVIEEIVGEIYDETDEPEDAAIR
- experimentalContext: 100 mM KCl, 5 mM MgCl2, 20 mM Hepes pH 7.5, 25 °C; CBS domain nucleotide site
measuredAttribute: pKd
On this scale, pKd is minus log10 of a concentration expressed in M (mol/L).

Query string: Suppose we examine the compound Nc1ncnc2c1ncn2[C@@H]1O[C@H](COP(=O)(O)OP(=O)(O)OP(=O)(O)O)[C@@H](O)[C@H]1O ; what pKd value has been reported?
Result string: 5.03
